- method.summary: Trypan blue cell viability, 7 days, epidermal progenitors
- Assay type: cell-based
- run.parameters: human, 10 μM, relative to control, read-out: epidermal progenitor viability after 7 days
Peptide text beside a SMILES is read from it.
assay.endpoint: viability at 168 h, 10 µM
Kindly write the number and append the unit.

compound	viability at 168 h, 10 µM
CCCCCCCCCCCCCCCC(=O)N[C@@H](Cc1ccc(O)cc1)C(=O)N[C@@H](CCCNC(=N)N)C(=O)N[C@@H](CO)C(=O)N[C@@H](CCCNC(=N)N)C(=O)N[C@@H](CCCCN)C(=O)N[C@H](Cc1ccc(O)cc1)C(=O)N[C@@H](CO)C(=O)N[C@@H](CO)C(=O)N[C@@H](Cc1c[nH]c2ccccc12)C(=O)N[C@@H](Cc1ccc(O)cc1)C(N)=O [P4B, Palmitoyl-YRSRK[*Y]SSWY-amide] (HELM PEPTIDE1{[CCCCCCCCCCCCCCCC(=O)[*:2]].Y.R.S.R.K.[dY].S.S.W.Y.[am]}$$$$V2.0)	99%

Continue with the compound presented below.
Tell us which viability at 168 h, 10 µM value is on record for CCCCCCCCCCCCCCCC(=O)N[C@@H](Cc1ccc(O)cc1)C(=O)N[C@@H](CCCNC(=N)N)C(=O)N[C@@H](CO)C(=O)N[C@@H](CCCNC(=N)N)C(=O)N[C@@H](CCCCN)C(=O)N[C@@H](Cc1ccc(O)cc1)C(=O)N[C@@H](CO)C(=O)N[C@@H](CO)C(=O)N[C@@H](Cc1c[nH]c2ccccc12)C(=O)N[C@@H](Cc1ccc(O)cc1)C(N)=O [P4A, Palmitoyl-YRSRKYSSWY-amide] (HELM PEPTIDE1{[CCCCCCCCCCCCCCCC(=O)[*:2]].Y.R.S.R.K.Y.S.S.W.Y.[am]}$$$$V2.0)
99%

----------
Listing of recorded viability at 72 h, 1000 µM by entry.
- method.summary: in vitro
- Type: cell-based
- run.parameters: human, human epidermal progenitors
Peptide text beside a SMILES is read from it.
Give the quantity in %, number only.

compound	viability at 72 h, 1000 µM (%)
CCCCCCCCCCCCCCCC(=O)N[C@@H](Cc1ccc(O)cc1)C(=O)N[C@@H](CCCNC(=N)N)C(=O)N[C@@H](CO)C(=O)N[C@@H](CCCNC(=N)N)C(=O)N[C@@H](CCCCN)C(=O)N[C@@H](Cc1ccc(O)cc1)C(=O)N[C@@H](CO)C(=O)N[C@@H](CO)C(=O)N[C@@H](Cc1c[nH]c2ccccc12)C(=O)N[C@@H](Cc1ccc(O)cc1)C(N)=O [P4A, Palmitoyl-YRSRKYSSWY-amide] (HELM PEPTIDE1{[CCCCCCCCCCCCCCCC(=O)[*:2]].Y.R.S.R.K.Y.S.S.W.Y.[am]}$$$$V2.0)	94

Turning now to a further record.
Please indicate viability at 72 h, 1000 µM recorded for CCCCCCCCCCCCCCCC(=O)N[C@@H](Cc1ccc(O)cc1)C(=O)N[C@@H](CCCNC(=N)N)C(=O)N[C@@H](CO)C(=O)N[C@@H](CCCNC(=N)N)C(=O)N[C@@H](CCCCN)C(=O)N[C@H](Cc1ccc(O)cc1)C(=O)N[C@@H](CO)C(=O)N[C@@H](CO)C(=O)N[C@@H](Cc1c[nH]c2ccccc12)C(=O)N[C@@H](Cc1ccc(O)cc1)C(N)=O [P4B, Palmitoyl-YRSRK[*Y]SSWY-amide] (HELM PEPTIDE1{[CCCCCCCCCCCCCCCC(=O)[*:2]].Y.R.S.R.K.[dY].S.S.W.Y.[am]}$$$$V2.0)
94

----------
- method.summary: MTT cell proliferation assay, melanoblasts
- Format: cell-based, human
- run.parameters: human, 30 μM, MTT, 72 h, read-out: melanoblast proliferation rate after 72 hours
- Experimental: Proliferation rates for three human cell lines (epidermal progenitors, melanoblasts, and fibroblasts) were determined using a TACS® MTT Cell Proliferation Kit. Cells were seeded at 2.5×10^4/well in 96-well plates in a humidified atmosphere with 5 percent CO2 at 37 degrees Celsius. Twenty-four hours later, the decapeptides were added to the corresponding wells at varying concentrations and incubated for 72 hours. The remainder of the procedure was performed following the manufacturer's protocol.
Peptide text beside a SMILES is read from it.
Reported viability at 72 h, 30 µM values for the following compounds.
# value in %; strip the unit string

compound	measurement.units	viability at 72 h, 30 µM
CCCCCCCCCCCCCCCC(=O)N[C@@H](Cc1ccc(O)cc1)C(=O)N[C@@H](CCCNC(=N)N)C(=O)N[C@@H](CO)C(=O)N[C@@H](CCCNC(=N)N)C(=O)N[C@@H](CCCCN)C(=O)N[C@@H](Cc1ccc(O)cc1)C(=O)N[C@@H](CO)C(=O)N[C@@H](CO)C(=O)N[C@@H](Cc1c[nH]c2ccccc12)C(=O)N[C@@H](Cc1ccc(O)cc1)C(N)=O [P4A, Palmitoyl-YRSRKYSSWY-amide] (HELM PEPTIDE1{[CCCCCCCCCCCCCCCC(=O)[*:2]].Y.R.S.R.K.Y.S.S.W.Y.[am]}$$$$V2.0)	%	99

Identify measured viability at 72 h, 30 µM corresponding to CCCCCCCCCCCCCCCC(=O)N[C@@H](Cc1ccc(O)cc1)C(=O)N[C@@H](CCCNC(=N)N)C(=O)N[C@@H](CO)C(=O)N[C@@H](CCCNC(=N)N)C(=O)N[C@@H](CCCCN)C(=O)N[C@H](Cc1ccc(O)cc1)C(=O)N[C@@H](CO)C(=O)N[C@@H](CO)C(=O)N[C@@H](Cc1c[nH]c2ccccc12)C(=O)N[C@@H](Cc1ccc(O)cc1)C(N)=O [P4B, Palmitoyl-YRSRK[*Y]SSWY-amide] (HELM PEPTIDE1{[CCCCCCCCCCCCCCCC(=O)[*:2]].Y.R.S.R.K.[dY].S.S.W.Y.[am]}$$$$V2.0)
99

----------
// reported viability at 168 h, 10 µM per item
- method.summary: Trypan blue cell viability, 7 days, fibroblasts
- Type: cell-based
- run.parameters: human, 10 μM, relative to control, read-out: fibroblast viability after 7 days
Peptide text beside a SMILES is read from it.
Express it in %; write the number only.

molecule	measurement.units	viability at 168 h, 10 µM
CCCCCCCCCCCCCCCC(=O)N[C@@H](Cc1ccc(O)cc1)C(=O)N[C@@H](CCCNC(=N)N)C(=O)N[C@@H](CO)C(=O)N[C@@H](CCCNC(=N)N)C(=O)N[C@@H](CCCCN)C(=O)N[C@@H](Cc1ccc(O)cc1)C(=O)N[C@@H](CO)C(=O)N[C@@H](CO)C(=O)N[C@@H](Cc1c[nH]c2ccccc12)C(=O)N[C@@H](Cc1ccc(O)cc1)C(N)=O [P4A, Palmitoyl-YRSRKYSSWY-amide] (HELM PEPTIDE1{[CCCCCCCCCCCCCCCC(=O)[*:2]].Y.R.S.R.K.Y.S.S.W.Y.[am]}$$$$V2.0)	%	98.9

# context switch: different molecule, same viability at 168 h, 10 µM
Tell me viability at 168 h, 10 µM reported for CCCCCCCCCCCCCCCC(=O)N[C@@H](Cc1ccc(O)cc1)C(=O)N[C@@H](CCCNC(=N)N)C(=O)N[C@@H](CO)C(=O)N[C@@H](CCCNC(=N)N)C(=O)N[C@@H](CCCCN)C(=O)N[C@H](Cc1ccc(O)cc1)C(=O)N[C@@H](CO)C(=O)N[C@@H](CO)C(=O)N[C@@H](Cc1c[nH]c2ccccc12)C(=O)N[C@@H](Cc1ccc(O)cc1)C(N)=O [P4B, Palmitoyl-YRSRK[*Y]SSWY-amide] (HELM PEPTIDE1{[CCCCCCCCCCCCCCCC(=O)[*:2]].Y.R.S.R.K.[dY].S.S.W.Y.[am]}$$$$V2.0)
98.8

----------
- method.summary: in vitro
- Assay type: cell-based
- run.parameters: human, human epidermal progenitors
Ends that are not written are not given here.
assay.endpoint: viability at 72 h, 300 µM (%)
Reply numerically in %, unit not repeated.

>>> print(df.to_string())
                                 substance  recorded_result
0  YRSRKYSSWY [decapeptide-12, YRSRKYSSWY]               96

Next:
Could you please provide reported viability at 72 h, 300 µM for Ac-YRSRKYSSWY-NH2 [P4C, Acetyl-YRSRKYSSWY-amide] ? Thanks!
97

----------
- method.summary: in vitro
- Type: cell-based
- run.parameters: human, human epidermal progenitors
Ends that are not written are not given here.
# maps each entry to its viability at 72 h, 100 µM
API: value field is a number in %; no unit string.

>>> print(df.to_string())
                                 substance             assay_endpoint  recorded_result
0  YRSRKYSSWY [decapeptide-12, YRSRKYSSWY]  viability at 72 h, 100 µM               97

Next item in the queue.
Return viability at 72 h, 100 µM for the following substance: Ac-YRSRKYSSWY-NH2 [P4C, Acetyl-YRSRKYSSWY-amide]
97

Origin of measurements: patent US20180296456A1
